Assay: Competitive inhibition of Acinetobacter baumannii 2208 ATCC 19606 FabI using crotonyl-CoA as substrate in presence of NADPH/NADH after 10 mins by fluorescence assay
Parameters: species or system Acinetobacter baumannii ATCC 19606 = CIP 70.34 = JCM 6841
Test readout: log10 of Ki (log10 of the value in µM)
Please interpret these as log10 of Ki where Ki is in µM.

CC(=O)Nc1ccc(/C=C/C(=O)N2CCC(c3ccccn3)C2)cn1 (racemic)
0.56
COc1ccccc1C1CCN(C(=O)Cc2ccccc2F)C1 (racemic)
0.04
COc1ccccc1C1CCN(C(=O)Cc2cccc(F)c2F)C1 (racemic)
0.57
O=C(Cc1ccccc1F)N1CCC(c2ccc3c(c2)OCO3)C1 (racemic)
1.20
O=C(Cc1c(F)cccc1F)N1CCC(c2ccccc2)C1 (racemic)
0.54

Any idea what its log10 of Ki is? The compound is CC(=O)Nc1ccc(/C=C/C(=O)N2CCC(c3nccs3)C2)cn1 (racemic)
1.00

Any idea what its log10 of Ki is? The compound is COc1ccccc1C1CCN(C(=O)Cc2ccccc2Cl)C1 (racemic)
0.26

Any idea what its log10 of Ki is? The compound is O=C(Cc1ccccc1Cl)N1CCC(c2ccccc2)C1 (racemic)
0.20

* * *

System: Acinetobacter baumannii
Test: Synergistic antibacterial activity against Acinetobacter baumannii 2208 ATCC 19606 in presence of colistin by checkerboard method
Assay type: functional
Details: ATCC 19606 = CIP 70.34 = JCM 6841 2208
Test readout: MIC
Please format your answer as a value with the unit trailing.

O=C(Cc1ccccc1Cl)N1CCC(c2ccc3c(c2)OCO3)C1 (racemic)
6.25 µg/mL
O=C(Cc1ccccc1F)N1CCC(c2ccccc2)C1 (racemic)
25 µg/mL

Next:
Any idea what its MIC is? The molecule is COc1ccccc1C1CCN(C(=O)Cc2ccccc2Cl)C1 (racemic)
12.5 µg/mL

* * *

Test: Competitive inhibition of Acinetobacter baumannii 2208 ATCC 19606 FabI using crotonyl-CoA as substrate in presence of NADPH/NADH after 10 mins by fluorescence assay
Design: species or system Acinetobacter baumannii ATCC 19606 = CIP 70.34 = JCM 6841
Each record here notes measured pKi.
Scale explanation: pKi corresponds to minus log10 of a concentration expressed in moles per litre.

Any idea what its pKi is? The compound is O=C(Cc1ccccc1F)N1CCC(c2ccccc2)C1 (racemic)
5.70

Any idea what its pKi is? The compound is COc1ccccc1C1CCN(C(=O)/C=C/c2ccc(NC(C)=O)nc2)C1 (racemic)
6.70

Any idea what its pKi is? The compound is O=C(Cc1c(F)cccc1F)N1CCC(c2ccc3c(c2)OCO3)C1 (racemic)
4.57

Any idea what its pKi is? The compound is COc1ccccc1C1CCN(C(=O)Cc2c(F)cccc2F)C1 (racemic)
5.82

Any idea what its pKi is? The compound is O=C(Cc1cccc(F)c1F)N1CCC(c2ccccc2)C1 (racemic)
5.33

Any idea what its pKi is? The compound is O=C(Cc1ccccc1Cl)N1CCC(c2nccs2)C1 (racemic)
5.15

Any idea what its pKi is? The compound is CC(=O)Nc1ccc(/C=C/C(=O)N2CCC(c3ccccc3)C2)cn1 (racemic)
6.70

Any idea what its pKi is? The compound is O=C(Cc1cccc(F)c1F)N1CCC(c2ccc3c(c2)OCO3)C1 (racemic)
5.16
